Just for reference, patent US11912703B2 is where these values come from.

# target_system: human TLR9 (Homo sapiens (Human), UniProt Q9NR96)
# Sequence (Q9NR96 26-1032): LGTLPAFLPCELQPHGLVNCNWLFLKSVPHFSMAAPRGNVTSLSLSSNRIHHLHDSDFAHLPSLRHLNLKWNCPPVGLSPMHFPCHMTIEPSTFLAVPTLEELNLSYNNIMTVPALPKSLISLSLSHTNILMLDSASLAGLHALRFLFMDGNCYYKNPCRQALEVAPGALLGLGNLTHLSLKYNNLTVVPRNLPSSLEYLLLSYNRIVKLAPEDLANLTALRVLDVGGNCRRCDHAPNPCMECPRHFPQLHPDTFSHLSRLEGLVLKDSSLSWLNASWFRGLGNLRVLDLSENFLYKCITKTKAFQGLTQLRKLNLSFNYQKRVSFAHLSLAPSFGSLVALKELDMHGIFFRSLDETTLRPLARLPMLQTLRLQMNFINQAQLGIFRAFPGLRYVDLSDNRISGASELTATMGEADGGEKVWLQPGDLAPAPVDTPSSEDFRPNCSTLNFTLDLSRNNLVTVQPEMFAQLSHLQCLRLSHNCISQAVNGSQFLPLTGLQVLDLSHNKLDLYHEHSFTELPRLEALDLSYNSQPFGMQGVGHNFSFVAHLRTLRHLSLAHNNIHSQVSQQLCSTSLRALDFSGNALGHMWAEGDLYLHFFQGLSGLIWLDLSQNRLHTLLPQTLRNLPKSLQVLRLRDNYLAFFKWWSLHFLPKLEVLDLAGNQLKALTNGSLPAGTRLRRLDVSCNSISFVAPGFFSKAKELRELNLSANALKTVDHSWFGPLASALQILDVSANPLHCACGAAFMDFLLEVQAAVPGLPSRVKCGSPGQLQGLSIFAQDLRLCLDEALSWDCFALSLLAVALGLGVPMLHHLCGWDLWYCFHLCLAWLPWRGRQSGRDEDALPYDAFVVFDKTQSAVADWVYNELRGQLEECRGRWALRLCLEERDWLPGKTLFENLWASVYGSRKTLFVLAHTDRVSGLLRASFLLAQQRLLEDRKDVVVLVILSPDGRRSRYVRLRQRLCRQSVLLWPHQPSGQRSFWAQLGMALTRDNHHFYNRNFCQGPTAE
# protocol: TLR9 inhibition reporter assay (HEK-Blue SEAP);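 also: SEAP driven by IFN-β minimal promoter carrying five NF-κB and AP-1 sites, 22 h at 37 °C, compounds 0.05 nM–50 µM, inhibition scaled between agonist-plus-DMSO and reference-inhibitor wells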
# assay_setup: read-out: TLR9 IC50; HEK-Blue cells overexpressing human TLR9, ODN2006 5 nM stimulation, SEAP reporter
observable: IC50 (nM)

Ask: Lab note: need IC50 for CCN(C)C1CCC(c2cc3c(C(C)C)c(-c4cc(OC)c5ncnn5c4)[nH]c3cn2)CC1 (centres unmarked) [Example 316] on human TLR9 (Homo sapiens (Human), UniProt Q9NR96), anyone have it?
Reply: 80

Ask: Item: CNCC(=O)N1CCC(c2ncc3[nH]c(-c4cc(C)nc(C)c4)c(C(C)C)c3c2F)CC1 [Example 214] Test system: human TLR9 (Homo sapiens (Human), UniProt Q9NR96) Read-out: IC50 Value: ?
Reply: 2070

Ask: IC50 of Cc1c(-c2[nH]c3cnc(C4CCC(NC(C)C)CC4)c(F)c3c2C(C)C)cn2ncnc2c1C (centres unmarked) [Example 136] on human TLR9 (Homo sapiens (Human), UniProt Q9NR96)?
Reply: 620

(a) COc1cc(-c2[nH]c3cnc(N4CC5(CN(CC(C)C)C5)C4)c(F)c3c2C(C)C)cn2ncnc12 [Example 372]
(b) CNCC(=O)N1CCC(c2ncc3[nH]c(-c4cc(OC)c5ncnn5c4)c(C(C)C)c3c2C)CC1 [Example 12]
(c) Cc1cc(-c2[nH]c3cnc(N4CCC(NC5COC5)CC4)c(F)c3c2C(C)C)cn2ncnc12 [Example 255]
(d) COc1cc(-c2[nH]c3cnc(C4CCC(NC5COC5)C4)cc3c2C(C)C)cn2ncnc12 (centres unmarked) [Example 93]
Ask: Please put the entries in order of rising IC50. Output the labels ranked as instructed.
Reply: b, d, a, c
(b: 866 nM, d: 2830 nM, a: 5440 nM, c: 14500 nM)
